# subject of test: ASTER domains from Aster-A, -B, and -C
# method: fluorescent NBD-cholesterol binding assay
# Parameters: species or system mouse
# measurement parameters: NBD-cholesterol 10-3,000 nM, ASTER-domain concentration constant; fit to a single exponential; average over the ASTER domains

{"molecule": "C[C@H](CNc1ccc([N+](=O)[O-])c2nonc12)[C@H]1CC[C@H]2[C@@H]3CC=C4C[C@@H](O)CC[C@]4(C)[C@H]3CC[C@]12C [NBD-cholesterol, 22-NBD-cholesterol]", "Kd": "< 100 nM"}
